Origin of the recorded values: ChEMBL document CHEMBL1201862

Listing of entries alongside the reported GI50.
System: A498
experimental protocol: NCI tumour cell line growth inhibition, 48 h
Active and inactive are the calls of the source. Cut-off read from the data, not from the text of the source: active = GI50 up to about 1.1 µM and inactive = higher.

{"molecule": "Fc1ccccc1-c1nn2c(C34CC5CC(CC(C5)C3)C4)nnc2s1", "GI50": "> 100 µM (inactive)"}
{"molecule": "O=C1/C(=C/c2ccc(Cl)cc2)COc2ccc(Br)cc21", "GI50": "> 100 µM (inactive)"}
{"molecule": "Cc1ccn2c(CCc3nnc4cc(C)ccn34)nnc2c1", "GI50": "> 100 µM (inactive)"}
{"molecule": "O=C1CCC2(c3ccccc3)OCC([C@@H](O)c3ccccc3)N12 (some centres not stated)", "GI50": "> 100 µM (inactive)"}
{"molecule": "C1=C\\CCCCN2C[C@H]3CCCC/C=C\\CCCCN4CC[C@@H]([C@H](CCCCCC/1)C4)[C@H](C3)C2", "GI50": "6.65 µM (inactive)"}
{"molecule": "CC(C)(C)OC(=O)NC(Cc1ccc(OCc2ccccc2)cn1)C(=O)N1CCCCC1 (configuration not stated)", "GI50": "34.5 µM (inactive)"}

Supply measured GI50 of O=C1c2ccccc2C(=O)N1c1nc(-c2ccc(Cl)cc2)cc(N2N=C(c3ccc(Br)cc3)CC2c2ccccc2)n1 (configuration not stated) in your reply. 19.2 µM (inactive)
